src = patent US20250313612A1

target: T1, RSV F ectodomain stabilized in the postfusion conformation (F ΔFP), subtype A (Respiratory syncytial virus subtype A, UniProt P03420 26-109; P03420 147-524); assay: BLI, IgG on AHQ sensor, 100 nM antigen
T1 construct: extracellular domain; trimer; furin-cleaved; also called Postfusion subtype A
Reported Kd values for a set of binders
PROPERTY_NAME: Kd (nM)

1. ADI-14485 (antibody, V domains shown, full-length IgG (yeast-expressed); also called Antibody Number 46; Ab# 46) VH: EVQLVESGAEVKRPGSSVKVSCKVVGGSFSNYAISWVRQAPGQGPEYLGGIIPAFRTAKYAKKFQDRLTITADESTSTAYMEMRGLTSDDTGLYYCARPEGDFGDLKWLRSPFDYWGQGTLVTVSS VL: EIVLTQSPATLSVSPGQRVTLSCRASQGVSINLAWYQQKPGQPPRLLIYGASTRATDIPARFSGSGSGTDFTLTISSLQSEDFAVYYCQQYDDWPPQLTFGPGTKLEIK = 1.52
2. ADI-14507 (antibody, V domains shown, full-length IgG (yeast-expressed); also called Antibody Number 68; Ab# 68) VH: QITLKESGPTLVKPTQTLTLTCTLSGFSLSTPRMGVGWIRQPPGKALEWLALIDWDDDRRYSPSLKTRLTITKDTSKNQVVLRMTDMDPVDTGTYYCVHSDVYTTGGYYLYYFDYWGQGTLVTVSS VL: DIQVTQSPSSLSASVGDRVTITCRASQTIPSYLNWYQHKPGKAPQLLIYAASNLRSGVPPRFRGSGSGTDFTLTVSSLQPEDFATYFCQQSYSSPYTFGQGTKLEIK = 0.266
3. ADI-14495 (antibody, V domains shown, full-length IgG (yeast-expressed); also called Antibody Number 56; Ab# 56) VH: QITLKESGPTLVKPTQTLTLTCSFSGFSLTTRGVGVGWVRQPPGKALECLGFVYWDDDKRYSPSLRSRLTISEDTSKNQVVLTMTNMDPLDTATYYCVHSDLYDRGGYYLFYFDYWGQGTLVTVSS VL: DIVLTQSPSSLSASVGDRVTITCRASQPIASYLNWYQHKPGKAPKLLIYAASSLQSGVSSTFSGRGSGTDFTLTITALQPEDFAIYYCQQSYTFPYTFGQGTKVDIK = 0.367
4. ADI-14469 (antibody, V domains shown, full-length IgG (yeast-expressed); also called Antibody Number 32; Ab# 32) VH: QVQLVESGPTLVKPTQTLTLTCTFSGFSLTTRGVGVGWVRQPPGKALEFLGLTHWDDDKIYSPSLRRRLTITKDTSKNQVVLALANVDPVDTATYFCVKSDLYDRGGYYLYYFDYWGQGTLVTVSS VL: EIVLTQSPSSLSASVGDRVTITCRASQTIPSYVNWYLQRPGEAPKLLIYGASNLHTGAPPTFIGRGSGADFTLTINTLQPEHFGTYYCQQTFSSPYTFGQGTKVEIK = 0.301
5. ADI-14477 (antibody, V domains shown, full-length IgG (yeast-expressed); also called Antibody Number 39; Ab# 39) VH: EVQLVESGPTLVKPTQTLTLTCSLSGFSLTTRGVGVGWIRQPPGKAPECLGFVYWDDDNRYSPSLRGRLTISKDTSKNQVVLTLTNMDPLDTATYYCVHSDLYDRGGYYLFYFDDWGQGTLVTVSS VL: DIQVTQSPSSLSASVGDRVTITCRASQPIASYLNWYQQKPGQAPKLLIYAASMLQSGAPSKFSGRGSGTDFTLTITTLQPEDFATYYCQQSYTFPYTFGQGTKVEIK = 0.361
6. ADI-14511 (antibody, V domains shown, full-length IgG (yeast-expressed); also called Antibody Number 72; Ab# 72) VH: EVQLLESGAEVKKPGSSVKVSCKVAGGTFSDYAISWVRQAPGQGLEYLGGIIPAFKRAMYPRKFQDRVTITADESTSTAYMELRGLRSEDTALYYCARPAGDFGDLKWLRSPFDYWGQGTLVTVSS VL: DIVLTQSPATLSVSPGERATLSCRASEGVGINLAWYQQKPGQAPRLLIYGASTRATDIPARFSGSGSGTDFTLTISSLQSEDFAVYYCQQYNDWPPQLTFGPGTKVDIK = 0.988
7. ADI-14525 (antibody, V domains shown, full-length IgG (yeast-expressed); also called Antibody Number 85; Ab# 85) VH: EVQLLESGGGVVQPGRSLRLSCTASGFTFSDHAMYWVRQAPGKGLEWVALISFDGRNIYYADSVKGRFTISRDNSKNTLYLQMNSLRAEDTAVYYCARDQWLVPDYWGQGTLVTVSS VL: QSVLIQPASVSGSPGQSITISCTGTSSDVGGYNYVSWYQQHPGNAPKLMIYEVSKRPSGVPDRFSGFKSGNTASLTVSGLQAEDEADYYCSSYAGSNSVFGTGTQLTVL = 0.23
8. ADI-14458 (antibody, V domains shown, full-length IgG (yeast-expressed); also called Antibody Number 21; Ab# 21) VH: QVQLVESGGGLVKPGGSLRLSCAASGFIFSNAWMSWVRQSPGKGLEWVGRIKTKTEGATTDHAAPLKGRFTISRDDSRNTLYLQMDSLTTEDTAVYFCTTGPPYSYFDSTGYSIVDYWGQGTLVTVSS VL: SYELTQPPAASGTPGQRVTISCSGSSSNIGSEYVLWYQQVPGTAPKLLIYNSHQRPSGVPDRISGSRSGTSASLAISGLRSEDEAHYYCASWDDSLSGPVFGGGTQLTVL = 0.196
9. ADI-14510 (antibody, V domains shown, full-length IgG (yeast-expressed); also called Antibody Number 71; Ab# 71) VH: QVQLQQWGAEVKKPGSSVKVSCKASGVALSSVAISWVRQAPGQGLEWMGGILPGFDKVRFAQEFENRATLTADTARDIAYMELSGLRSDDTAVYYCAIIDPQDCTSASCFWVNWLDPWGQGTLVTVSS VL: ETTLTQSPGTLTVSPGERATLSCRASQSIIRNNLAWYQQKPGQAPRLLIYAASNRATDIPDRFSGSGSGTDFTLTISRLEAQDFAVYFCQQYGTSPITFGQGTKVEIK = 0.783
10. ADI-14494 (antibody, V domains shown, full-length IgG (yeast-expressed); also called Antibody Number 55; Ab# 55) VH: EVQLVESGGGVVQPGRSLRLSCAASGFTFSDHAMYWVRQAPGKGLEWVALISFDGRNIYYADSVKGRFTISRDNSKNTLYLQMNSLRAEDTAVYYCARDQWLVPDYWGQGTLVTVSS VL: QSALTQPASVSGSPGQSITISCTGTSSDVGGYNYVSWYQQHPGNAPKLMIYEVSKRPSGVPDRFSGFKSGNTASLTVSGLQAEDEADYYCSSYAGSNSVFGTGTKVTVL = 0.24
